The values you see were collected from paper PMC6176729.

Here, each record is paired with measured CLINT mouse data.
- ASSAY PROCEDURE: Microsomal stability assay, mouse liver microsomes
- Type: in vitro ADME
- EXPERIMENTAL SETUP: mouse liver microsomes 0.5 mg/mL, 1 μM compound

{"columns": ["MOLECULE", "CLINT mouse (mL/min/kg body weight)"],
 "data": [
  ["O=C(N[C@@H](Cn1ccnc1)c1ccc(Cl)cc1Cl)c1ccc(-c2nnc(-c3cc(F)cc(-c4ncncc4F)c3)o2)cc1 [Compound 15]", 104],
  ["O=C(N[C@@H](Cn1ccnc1)c1ccc(Cl)cc1Cl)c1ccc(-c2nnc(-c3cc(-c4ccccn4)ccc3F)o2)cc1 [Compound 13]", 238],
  ["O=C(N[C@@H](Cn1ccnc1)c1ccc(Cl)cc1Cl)c1ccc(-c2nnc(-c3ccc(C(F)(F)F)c(F)c3)o2)cc1 [Compound 2]", 60]
]}
